# METHOD NOTES: Pharmacokinetic study, intravenous
# Assay type: in vivo
# CONDITION: mouse, plasma, male Balb/c mice, i.v. 2.5 mg/kg b.w. single dose, read-out: Clearance (Cl) (converted)
READOUT TYPE: clearance (mL/min/kg)
Value expressed in mL/min/kg; do not type the unit.

Form field clearance, entry CCCCCCCC(c1oc(CO)cc(=O)c1O)c1c[nH]c2ccccc12 (stereo not shown) : 205

---

I'd be grateful if you could share measured melting point for these entries.

Just so you know, measured melting point for CCCCCCC(c1oc(CO)cc(=O)c1O)c1c[nH]c2ccccc12 (centres unmarked) [Compound 4] came out at 115 to 125 °C

CCCCCCCCCCCC(c1oc(CO)cc(=O)c1O)c1c[nH]c2ccccc12 (centres unmarked) [Compound 8] yielded melting point of 105 to 115 °C

For record CCCCCCCCCCC(c1oc(CO)cc(=O)c1O)c1c[nH]c2ccccc12 (centres unmarked) [Compound 7] the listed melting point is 110 to 120 °C

Documented melting point of CCCCCC(c1oc(CO)cc(=O)c1O)c1c[nH]c2ccccc12 (centres unmarked) [Compound 3] : 120 to 130 °C

Sure, the documented melting point for CCCCCCCCCCCCCCCC(c1oc(CO)cc(=O)c1O)c1c[nH]c2ccccc12 (centres unmarked) [Compound 9] is 95 to 105 °C

For CCCCCCCCCCCCCCCCCC(c1oc(CO)cc(=O)c1O)c1c[nH]c2ccccc12 (centres unmarked) [Compound 10] the compound record lists melting point as 90 to 100 °C

Sample CCCCCCCCCC(c1oc(CO)cc(=O)c1O)c1c[nH]c2ccccc12 (centres unmarked) [Compound 6] ; melting point observed: 110 to 120 °C

Looking up CCCC(c1oc(CO)cc(=O)c1O)c1c[nH]c2ccccc12 (centres unmarked) [Compound 2] , I see its melting point listed as 130 to 140 °C
